Provenance of the data: PubChem BioAssay (NCI)

# Tested on: HS 578T breast
# protocol.details: NCI tumour cell line growth inhibition, 48 h
measured.property: TGI

Use the examples below as a reference point.
C[C@H]1[C@H]2[C@H]3CC[C@@H]4[C@@]5(C)C/C(=C/c6cccnc6)C(=O)C(C)(C)[C@@H]5CC[C@@]4(C)[C@]3(C)CC[C@]23CO[C@]1(C)[C@@H](C(=O)/C=C\c1cccnc1)C3	7.4 µM
Br/C(=N\Nc1nn[nH]n1)c1ccncc1	> 100 µM

Input: Value lookup for TGI; key = COc1ccc(CNc2nc3cc(N)cc(N)c3nc2-c2ccccc2)cc1
Output: > 100 µM

Input: Value lookup for TGI; key = COc1ccc(-n2c(N)c(C#N)c(C#N)c2-c2ccccc2)cc1
Output: > 100 µM

Input: Value lookup for TGI; key = CC(=O)C1(N=Nc2ccc(S(N)(=O)=O)cc2)CCOC1=O (stereo not given)
Output: > 100 µM
